assay: Fraction unbound in mouse plasma at 10 mg/kg, po; format: ADME, organism-based; set-up: dose 10 mg/kg, route oral
QUANTITY_KIND: fraction unbound

>>> print(df.to_string())
                              sample_smiles  readout_number
0  CS(=O)(=O)c1ccc(OCC2CC2)c(C(=O)N2CCN(c3ccc(C#N)cc3F)CC2)c1            0.12

====

biological target: Sodium- and chloride-dependent glycine transporter 2 (Homo sapiens); experiment: Inhibition of [3H]glycine uptake at human glycine transporter 2 expressed in CHO cells by scintillation counter
Sequence (Q9Y345 whole entry): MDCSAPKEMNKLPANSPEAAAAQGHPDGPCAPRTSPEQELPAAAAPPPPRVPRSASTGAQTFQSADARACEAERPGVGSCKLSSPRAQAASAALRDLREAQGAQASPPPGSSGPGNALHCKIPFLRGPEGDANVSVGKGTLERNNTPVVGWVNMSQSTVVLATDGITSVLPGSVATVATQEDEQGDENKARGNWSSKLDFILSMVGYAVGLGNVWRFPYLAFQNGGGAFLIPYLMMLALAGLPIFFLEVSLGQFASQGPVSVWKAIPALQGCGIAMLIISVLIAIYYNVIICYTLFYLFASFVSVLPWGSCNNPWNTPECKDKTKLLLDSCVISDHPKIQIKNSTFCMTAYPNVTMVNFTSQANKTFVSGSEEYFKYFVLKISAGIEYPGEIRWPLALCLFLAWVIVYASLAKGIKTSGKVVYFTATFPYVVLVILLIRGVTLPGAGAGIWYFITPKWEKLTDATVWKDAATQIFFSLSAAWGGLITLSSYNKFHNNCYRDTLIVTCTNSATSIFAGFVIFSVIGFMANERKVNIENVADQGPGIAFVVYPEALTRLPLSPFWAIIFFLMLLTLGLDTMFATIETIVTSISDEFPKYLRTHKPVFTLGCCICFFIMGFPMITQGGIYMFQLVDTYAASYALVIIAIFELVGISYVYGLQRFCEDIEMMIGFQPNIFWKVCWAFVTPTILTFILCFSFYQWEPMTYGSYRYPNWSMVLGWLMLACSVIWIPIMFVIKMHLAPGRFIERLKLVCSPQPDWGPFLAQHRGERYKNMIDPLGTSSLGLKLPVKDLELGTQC
pEC50: −log10 of the molar value.
In this section we review reported pEC50 values for a set of compounds.
QUANTITY_KIND: pEC50

>>> df
                               sample_smiles  relational_operator  readout_number
 0  CC(=O)c1ccc(N2CCN(C(=O)c3cc(C#N)ccc3N3CCOCC3)CC2)c(F)c1                    =            4.89
 1  COc1ccc(N2CCN(C(=O)c3cc([N+](=O)[O-])ccc3N3CCOCC3)CC2)cc1                    =            4.94
 2  O=C(c1cc([N+](=O)[O-])ccc1N1CCOCC1)N1CCN(c2ccc(Cl)cc2)CC1                    =            5.93
 3  N#Cc1ccc(N2CCN(C(=O)c3cc([N+](=O)[O-])ccc3N3CCOCC3)CC2)c(F)c1                    =            5.37
 4  CC(=O)c1ccc(N2CCN(C(=O)c3cc([N+](=O)[O-])ccc3NC3CCCCC3)CC2)c(F)c1                    =            5.07
 5  O=C(c1cc([N+](=O)[O-])ccc1N1CCOCC1)N1CCN(c2cccc(C(F)(F)F)c2)CC1                    =            6.52
 6  N#Cc1ccc(N2CCN(C(=O)c3cc([N+](=O)[O-])ccc3N3CCOCC3)CC2)cc1                    =            5.96
 7  CC(=O)c1ccc(N2CCN(C(=O)c3cc(C)ccc3N3CCOCC3)CC2)c(F)c1                    <            4.52
 8  CC(=O)c1ccc(N2CCN(C(=O)c3cc(N)ccc3N3CCOCC3)CC2)c(F)c1                    <            4.52
 9  COc1cccc(N2CCN(C(=O)c3cc([N+](=O)[O-])ccc3N3CCOCC3)CC2)c1                    =            5.08
10  CNc1ccc([N+](=O)[O-])cc1C(=O)N1CCN(c2ccc(C(C)=O)cc2F)CC1                    =            5.85
11  CS(=O)(=O)c1ccc(N2CCN(C(=O)c3cc([N+](=O)[O-])ccc3N3CCOCC3)CC2)c(F)c1                    <            4.52
12  O=C(c1cc([N+](=O)[O-])ccc1N1CCOCC1)N1CCN(c2ccccc2C(F)(F)F)CC1                    <            4.52
13  CC(=O)c1ccc(N2CCN(C(=O)c3cc([N+](=O)[O-])ccc3NC(C)C)CC2)c(F)c1                    =            5.00
14  CC(=O)c1ccc(N2CCN(C(=O)c3cc(Br)ccc3N3CCOCC3)CC2)c(F)c1                    =            5.29
15  CC(=O)c1ccc(N2CCN(C(=O)c3cc(S(C)(=O)=O)ccc3N3CCOCC3)CC2)c(F)c1                    <            4.52
16  O=C(c1cc([N+](=O)[O-])ccc1N1CCOCC1)N1CCN(c2ccc(C(F)(F)F)c(F)c2)CC1                    =            4.82
17  CC(=O)c1ccc(N2CCN(C(=O)c3cc([N+](=O)[O-])ccc3N(C)C)CC2)c(F)c1                    =            5.70
